# Test system: DNA
# Method Notes: Binding affinity to human truncated telomeric DNA1 assessed as melting temperature at 20 uM by UV melting curve analysis (reference value: 58.9 +/- 0.3 degC)
# Format: nucleic-acid assay
Reported Property: Tm (°C)

• CC(=O)NCCN(CC(=O)NC(CCCCN)CN(CC(=O)NCCN(CC(=O)NC(CCCCN)CN(CC(=O)NCCN(CC(=O)NC(CCCCN(C)C)C(N)=O)C(=O)Cn1cc(C)c(=O)[nH]c1=O)C(=O)Cn1cnc2c(=O)[nH]c(N)nc21)C(=O)Cn1cnc2c(=O)[nH]c(N)nc21)C(=O)Cn1cnc2c(=O)[nH]c(N)nc21)C(=O)Cn1cc(C)c(=O)[nH]c1=O (centres undefined) = 58.4
• CC(=O)NCCN(CC(=O)NCCN(CC(=O)NCCN(CC(=O)NCCN(CC(=O)NCCN(CC(=O)NC(CCCCN(C)C)C(N)=O)C(=O)Cn1cc(C)c(=O)[nH]c1=O)C(=O)Cn1cnc2c(=O)[nH]c(N)nc21)C(=O)Cn1cnc2c(=O)[nH]c(N)nc21)C(=O)Cn1cnc2c(=O)[nH]c(N)nc21)C(=O)Cn1cc(C)c(=O)[nH]c1=O (centres undefined) = 57.3
• CC(=O)NCCN(CC(=O)NC(CCCCN)CN(CC(=O)NC(CCCCN)CN(CC(=O)NC(CCCCN)CN(CC(=O)NCCN(CC(=O)NC(CCCCN(C)C)C(N)=O)C(=O)Cn1cc(C)c(=O)[nH]c1=O)C(=O)Cn1cnc2c(=O)[nH]c(N)nc21)C(=O)Cn1cnc2c(=O)[nH]c(N)nc21)C(=O)Cn1cnc2c(=O)[nH]c(N)nc21)C(=O)Cn1cc(C)c(=O)[nH]c1=O (centres undefined) = 59.1
• CC(=O)NCCN(CC(=O)NCCN(CC(=O)NC(CCCCN)CN(CC(=O)NCCN(CC(=O)NCCN(CC(=O)NC(CCCCN(C)C)C(N)=O)C(=O)Cn1cc(C)c(=O)[nH]c1=O)C(=O)Cn1cnc2c(=O)[nH]c(N)nc21)C(=O)Cn1cnc2c(=O)[nH]c(N)nc21)C(=O)Cn1cnc2c(=O)[nH]c(N)nc21)C(=O)Cn1cc(C)c(=O)[nH]c1=O (centres undefined) = 60.2
